# Tested on: Escherichia coli
# EXPERIMENT: Antibacterial activity against Escherichia coli BAS901 expressing delta-imp assessed as reduction in bacterial growth incubated for 18 to 24 hrs by broth dilution method
# Assay type: functional
MIC for assorted compounds

COMPOUND	MIC
CCCCCCCCO[C@@H]1O[C@@H](C)[C@H](OC(=O)CCCCC)[C@@H](O[C@@H]2O[C@@H](C)[C@H](O)[C@@H](OC(C)=O)[C@H]2OC(C)=O)[C@H]1O [MEZZETTIASIDE 9]	> 32 µM
CCCCCCCCO[C@@H]1O[C@@H](C)[C@H](OC(=O)CCCCC)[C@@H](O[C@@H]2O[C@@H](C)[C@H](OC(C)=O)[C@@H](O[C@@H]3O[C@@H](C)[C@H](OC(C)=O)[C@@H](O[C@@H]4O[C@@H](C)[C@H](O)[C@@H](O)[C@H]4OC(C)=O)[C@H]3O)[C@H]2OC(C)=O)[C@H]1O	> 32 µM

* * *

MIC for assorted compounds
# Tested on: Escherichia coli
# EXPERIMENT: Antibacterial activity against Escherichia coli BAS901 expressing delta-imp assessed as reduction in bacterial growth incubated for 18 to 24 hrs by broth dilution method
# Assay type: functional
ASSAY_METRIC: MIC

COMPOUND	READOUT_VALUE
CCCCCCCCO[C@@H]1O[C@@H](C)[C@H](OC(=O)CCCCC)[C@@H](O[C@@H]2O[C@@H](C)[C@H](OC(C)=O)[C@@H](O[C@@H]3O[C@@H](C)[C@H](OC(C)=O)[C@@H](O)[C@H]3O)[C@H]2OC(C)=O)[C@H]1O [MEZZETTIASIDE 4]	> 32 µM
CCCCCCCCO[C@@H]1O[C@@H](C)[C@H](OC(=O)CCCCC)[C@@H](O[C@@H]2O[C@@H](C)[C@H](OC(C)=O)[C@@H](O[C@@H]3O[C@@H](C)[C@H](O)[C@@H](O)[C@H]3OC(C)=O)[C@H]2OC(C)=O)[C@H]1O [MEZZETTIASIDE 8]	> 32 µM
CCCCCCCCO[C@@H]1O[C@@H](C)[C@H](OC(=O)CCCCC)[C@@H](O[C@@H]2O[C@@H](C)[C@H](OC(C)=O)[C@@H](O[C@@H]3O[C@@H](C)[C@H](OC(C)=O)[C@@H](O[C@@H]4O[C@@H](C)[C@H](O)[C@@H](O)[C@H]4O)[C@H]3O)[C@H]2OC(C)=O)[C@H]1O	> 32 µM

* * *

MIC for assorted molecules
# Test system: Enterococcus faecium
# EXPERIMENT: Antibacterial activity against Enterococcus faecium assessed as reduction in bacterial growth incubated for 18 to 24 hrs by broth dilution method
# Assay type: functional

MOLECULE	SYSTEM_TESTED	MIC
CCCCCCCCO[C@@H]1O[C@@H](C)[C@H](OC(=O)CCCCC)[C@@H](O[C@@H]2O[C@@H](C)[C@H](OC(C)=O)[C@@H](O[C@@H]3O[C@@H](C)[C@H](OC(C)=O)[C@@H](O[C@@H]4O[C@@H](C)[C@H](O)[C@@H](O)[C@H]4O)[C@H]3O)[C@H]2OC(C)=O)[C@H]1O	Enterococcus faecium	> 32 µM
CCCCCCCCO[C@@H]1O[C@@H](C)[C@H](OC(=O)CCCCC)[C@@H](O[C@@H]2O[C@@H](C)[C@H](OC(C)=O)[C@@H](O[C@@H]3O[C@@H](C)[C@H](OC(C)=O)[C@@H](O)[C@H]3O)[C@H]2OC(C)=O)[C@H]1O [MEZZETTIASIDE 4]	Enterococcus faecium	16 µM
CCCCCCCCO[C@@H]1O[C@@H](C)[C@H](OC(=O)CCCCC)[C@@H](O[C@@H]2O[C@@H](C)[C@H](OC(C)=O)[C@@H](O[C@@H]3O[C@@H](C)[C@H](OC(C)=O)[C@@H](O[C@@H]4O[C@@H](C)[C@H](O)[C@@H](O)[C@H]4OC(C)=O)[C@H]3O)[C@H]2OC(C)=O)[C@H]1O	Enterococcus faecium	> 32 µM
CCCCCCCCO[C@@H]1O[C@@H](C)[C@H](OC(=O)CCCCC)[C@@H](O[C@@H]2O[C@@H](C)[C@H](O)[C@@H](OC(C)=O)[C@H]2OC(C)=O)[C@H]1O [MEZZETTIASIDE 9]	Enterococcus faecium	> 32 µM
CCCCCCCCO[C@@H]1O[C@@H](C)[C@H](OC(=O)CCCCC)[C@@H](O[C@@H]2O[C@@H](C)[C@H](OC(C)=O)[C@@H](O[C@@H]3O[C@@H](C)[C@H](O)[C@@H](O)[C@H]3OC(C)=O)[C@H]2OC(C)=O)[C@H]1O [MEZZETTIASIDE 8]	Enterococcus faecium	> 32 µM

* * *

MIC for assorted molecules
# Tested on: Staphylococcus aureus
# EXPERIMENT: Antibacterial activity against methicillin-sensitive Staphylococcus aureus HG003 assessed as reduction in bacterial growth incubated for 18 to 24 hrs by broth dilution method
# Assay type: functional

MOLECULE	MIC
CCCCCCCCO[C@@H]1O[C@@H](C)[C@H](OC(=O)CCCCC)[C@@H](O[C@@H]2O[C@@H](C)[C@H](OC(C)=O)[C@@H](O[C@@H]3O[C@@H](C)[C@H](O)[C@@H](O)[C@H]3OC(C)=O)[C@H]2OC(C)=O)[C@H]1O [MEZZETTIASIDE 8]	> 32 µM
CCCCCCCCO[C@@H]1O[C@@H](C)[C@H](OC(=O)CCCCC)[C@@H](O[C@@H]2O[C@@H](C)[C@H](OC(C)=O)[C@@H](O[C@@H]3O[C@@H](C)[C@H](OC(C)=O)[C@@H](O)[C@H]3O)[C@H]2OC(C)=O)[C@H]1O [MEZZETTIASIDE 4]	32 µM
CCCCCCCCO[C@@H]1O[C@@H](C)[C@H](OC(=O)CCCCC)[C@@H](O[C@@H]2O[C@@H](C)[C@H](OC(C)=O)[C@@H](O[C@@H]3O[C@@H](C)[C@H](OC(C)=O)[C@@H](O[C@@H]4O[C@@H](C)[C@H](O)[C@@H](O)[C@H]4OC(C)=O)[C@H]3O)[C@H]2OC(C)=O)[C@H]1O	> 32 µM
CCCCCCCCO[C@@H]1O[C@@H](C)[C@H](OC(=O)CCCCC)[C@@H](O[C@@H]2O[C@@H](C)[C@H](O)[C@@H](OC(C)=O)[C@H]2OC(C)=O)[C@H]1O [MEZZETTIASIDE 9]	> 32 µM
CCCCCCCCO[C@@H]1O[C@@H](C)[C@H](OC(=O)CCCCC)[C@@H](O[C@@H]2O[C@@H](C)[C@H](OC(C)=O)[C@@H](O[C@@H]3O[C@@H](C)[C@H](OC(C)=O)[C@@H](O[C@@H]4O[C@@H](C)[C@H](O)[C@@H](O)[C@H]4O)[C@H]3O)[C@H]2OC(C)=O)[C@H]1O	> 32 µM

All figures here come from ChEMBL document CHEMBL3588859.
